test.system: human Somatostatin 4 receptor (hSSTR4) (Homo sapiens (Human), UniProt P31391)
Sequence (P31391 whole entry): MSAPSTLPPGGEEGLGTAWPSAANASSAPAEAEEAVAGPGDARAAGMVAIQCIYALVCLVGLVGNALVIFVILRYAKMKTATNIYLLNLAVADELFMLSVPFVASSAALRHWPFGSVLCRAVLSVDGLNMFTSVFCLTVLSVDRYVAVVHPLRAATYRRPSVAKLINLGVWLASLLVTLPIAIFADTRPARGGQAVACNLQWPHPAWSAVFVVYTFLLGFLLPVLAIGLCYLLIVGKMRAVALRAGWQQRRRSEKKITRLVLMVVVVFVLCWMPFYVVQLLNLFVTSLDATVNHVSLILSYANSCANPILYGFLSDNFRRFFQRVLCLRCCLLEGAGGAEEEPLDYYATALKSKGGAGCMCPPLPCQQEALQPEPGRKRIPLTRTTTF
measurement.protocol: cAMP assay with human somatostatin 4 receptor (inhibition of forskolin-stimulated cAMP, hSSTR4 expressing H4 cells)
run.conditions: read-out: SSTR4 agonism EC50
pEC50: −log10 of the molar value.
endpoint: pEC50

[
  {
    "compound": "Cc1nc(C(C)(C)NC(=O)[C@@H]2CNCCO2)n2cccc(F)c12 [Example 98]",
    "endpoint": "pEC50",
    "data.value": 7.07
  }
]

a = CC(C)(NC(=O)[C@H]1CNCCO1)c1ccnc2ccccc12 [Example 8]
b = CC(C)(NC(=O)C1CNCCOC1)c1noc2c(Cl)cccc12 (single isomer, unassigned) [Example 73]
c = Cc1cccn2c(C3(NC(=O)C4CNCCOC4)CC3)ncc12 (stereo not shown) [Example 5]
-- ask Write the entries in order, lowest recorded pEC50 first. Output spec: labels arranged per the requested ranking.
-- reply a, c, b
(a: 6.59, c: 7.69, b: 8.08)

Cited source for all entries: patent US10577336B2
